- System: Rattus norvegicus
- method-notes: Antiinflammatory activity in albino rat acute inflammatory model assessed as inhibition of carrageenan-induced paw edema at 200 mg/kg, po dosed 1 hr before carrageenan challenge measured after 4 hrs relative to control
- Type: functional
Outcome: true (1) for inhibition in vivo at 200 mg/kg of at least 40%; false (0) for anything lower.

COc1ccc([C@H]2CC(c3cc4ccccc4oc3=O)=NN2c2ccccc2)cc1    false (0)
O=c1oc2ccccc2cc1C1=NN(c2ccccc2)[C@@H](c2ccc(Cl)cc2Cl)C1    true (1)
Cc1ccc([C@H]2CC(c3cc4ccccc4oc3=O)=NN2c2ccccc2)cc1    false (0)
O=c1oc2ccccc2cc1C1=NN(c2ccccc2)[C@@H](c2ccc(F)cc2)C1    true (1)
O=c1oc2ccccc2cc1C1=NN(c2ccccc2)[C@@H](c2ccccc2[N+](=O)[O-])C1    false (0)
O=c1oc2ccccc2cc1C1=NN(c2ccccc2)[C@@H](c2ccc(Cl)cc2)C1    true (1)

Challenge: Decide: inhibition in vivo at 200 mg/kg of O=c1oc2ccccc2cc1C1=NN(c2ccccc2)[C@@H](c2ccc(O)cc2)C1 >= 40%?
Response given: false (0)

Challenge: Next molecule up: O=c1oc2ccccc2cc1C1=NN(c2ccccc2)[C@@H](c2cccc([N+](=O)[O-])c2)C1
Response given: false (0)

Challenge: Next molecule up: COc1cccc([C@H]2CC(c3cc4ccccc4oc3=O)=NN2c2ccccc2)c1
Response given: true (1)

Challenge: Next molecule up: O=c1oc2ccccc2cc1C1=NN(c2ccccc2)[C@@H](/C=C/c2ccccc2)C1
Response given: true (1)

Challenge: Next molecule up: O=c1oc2ccccc2cc1C1=NN(c2ccccc2)[C@@H](c2ccccc2)C1
Response given: false (0)

====

- Test system: Rattus norvegicus
- method-notes: Antiinflammatory activity in albino rat chronic arthritis model assessed as inhibition of Freund's adjuvant-induced paw edema at 200 mg/kg, po administered on day 16 to 19 post Freund's adjuvant challenge measured on day 19 relative to control
- Type: functional
assay-metric: inhibition in vivo at 200 mg/kg
A complete answer gives the number followed by the unit.

Would you please look over these solved cases?
O=c1oc2ccccc2cc1C1=NN(c2ccccc2)[C@@H](c2ccc(F)cc2)C1    40.5%
O=c1oc2ccccc2cc1C1=NN(c2ccccc2)[C@@H](c2ccc(Cl)cc2)C1    39.1%
COc1cccc([C@H]2CC(c3cc4ccccc4oc3=O)=NN2c2ccccc2)c1    20.9%

We now examine a further compound.
Challenge: Request the reported inhibition in vivo at 200 mg/kg associated with O=c1oc2ccccc2cc1C1=NN(c2ccccc2)[C@@H](c2ccc(Cl)cc2Cl)C1
Response given: 45.4%

====

- System: Rattus norvegicus
- method-notes: Gastrointestinal toxicity in starved albino rat stress model assessed as ulcer index at 200 mg/kg, po after 7 hrs
- Format: organism-based
- Set-up: dose 200 mg/kg, route oral
- assay-conditions: in vivo
Each item that follows carries a reported UI.
Kindly provide the number alone.

Would you please look over these solved cases?
COc1cccc([C@H]2CC(c3cc4ccccc4oc3=O)=NN2c2ccccc2)c1    2.12
O=c1oc2ccccc2cc1C1=NN(c2ccccc2)[C@@H](c2ccc(F)cc2)C1    1.66
O=c1oc2ccccc2cc1C1=NN(c2ccccc2)[C@@H](c2ccc(Cl)cc2)C1    2.33

We now examine a further compound.
Challenge: Request the reported UI associated with O=c1oc2ccccc2cc1C1=NN(c2ccccc2)[C@@H](c2ccc(Cl)cc2Cl)C1
Response given: 2.67

====

- Tested on: Mus musculus
- method-notes: Acute toxicity in albino mouse assessed as mortality up to 2000 mg/kg, po after 24 hrs
- Type: organism-based
- Parameters: dose 2000 mg/kg, route oral
- assay-conditions: in vivo
assay-metric: Activity

O=c1oc2ccccc2cc1C1=NN(c2ccccc2)[C@@H](c2cccc([N+](=O)[O-])c2)C1    Non-toxic
O=c1oc2ccccc2cc1C1=NN(c2ccccc2)[C@@H](c2ccccc2)C1    Non-toxic
O=c1oc2ccccc2cc1C1=NN(c2ccccc2)[C@@H](c2ccc(F)cc2)C1    Non-toxic
